System: MCF7
test.description: MTT proliferation assay, MCF7 breast cancer cells
Assay type: cell-based
condition.notes: Homo sapiens, 72 h, read-out: IC50 (50% inhibitory concentration), growth inhibition
Protocol: Human melanoma cells (M14) and doxorubicin resistant cells (M14+) were provided by Prof. G. Arancia form the National Institute of Health of Rome. […] Proliferation of human cancer cell lines was performed in the presence of increasing concentrations of different drugs by MTT assay as previously described by Caraglia et al. (Oncogene 2004). […]
reported.property: pIC50
For clarity, pIC50 is expressed as the negative log10 of concentration in mol/L.

Which pIC50 is reported for this compound? O=P(O)(O)C(O)(Cn1ccnc1)P(=O)(O)O [free ZOL, zoledronic acid]
3.92

All values here come from patent US9226897B2.
